This collection of values is drawn from patent US20180105596A1.

Biological target: T1, cynomolgus Tyro3 ECD, His-Strep tagged
T1 construct: also called cyno TYRO3 ECD 8hisstrep
T1 extracellular domain: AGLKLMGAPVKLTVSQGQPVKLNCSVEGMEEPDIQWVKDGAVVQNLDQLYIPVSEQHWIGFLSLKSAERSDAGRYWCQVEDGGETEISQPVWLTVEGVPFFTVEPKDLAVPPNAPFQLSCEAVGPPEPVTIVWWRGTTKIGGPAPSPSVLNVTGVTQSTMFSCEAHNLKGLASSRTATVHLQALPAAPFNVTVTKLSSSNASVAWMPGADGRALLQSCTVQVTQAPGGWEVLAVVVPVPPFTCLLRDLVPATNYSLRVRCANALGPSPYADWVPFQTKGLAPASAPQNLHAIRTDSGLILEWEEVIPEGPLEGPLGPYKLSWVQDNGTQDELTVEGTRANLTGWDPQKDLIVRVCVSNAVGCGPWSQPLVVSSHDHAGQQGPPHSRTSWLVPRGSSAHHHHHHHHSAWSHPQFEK
Experiment: sandwich ELISA, Strep-tagged cynomolgus Tyro3 ECD captured on StrepMAB plate, scFv 3-fold from 10 µg/mL, anti-FLAG-HRP

[
  {
    "binder": "anti-Tyro3 scFv 2717 (scFv, V domains shown, Tested as a single-chain Fv made in E. coli) VH: EVQLVQSGADVKKPGASLTISCQASGYTFTDYWISWVRQKPGKGLEWMGEIFLPPSTTVYGPSFQGHVTISADRSTATAYLQWRSLEASDTAMYYCVRQTRLTSGGTIPEYYQHWGPGTLVTVSS VL: SYELTQPPSVSVSPGQTARITCSGDALPKKYAYWYQQKSGQAPVLVIYEDNKRGSGIPERFSGSSSGTMATLTISGAQVEDEADYYCYSKSPEGNYMVFGGGTKLTVL",
    "binding result": "binds"
  }
]
